Where these numbers come from: the supplement of paper PMC10567573

B1: FAM189A2 (parent)
chain: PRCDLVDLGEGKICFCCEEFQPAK

Variants of: B1
Experimental protocol: protein stability index of a GFP-peptide fusion (GPS, HEK-293T) (PSI 1-6); higher = more stable;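 also: lentivirally expressed fusions sorted by FACS into six bins by GFP to DsRed ratio, PSI derived from sequencing read proportions per bin multiplied by bin number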
Condition set: c terminus: a fixed tail appended
Measured attribute: protein stability index
Respond numerically, and do not add a unit to the figure.

Previously resolved entries follow.
Mutation label | protein stability index
P22F | 3.12
F20R | 4.13
F20Q | 2.59
R2I | 2.83
D4F | 2.11
P22E | 3.49
Q21V | 2.66
G9Y | 2.94
K24L | 3.26
R2Q | 3.13

Query block: I have this variant here, R2N , and I need its recorded protein stability index.
Result block: 2.9

Query block: I have this variant here, K24R , and I need its recorded protein stability index.
Result block: 2.89
